Origin of the recorded values: patent US20250084039A1

biological target: EPHA5 (Homo sapiens (Human)); assay: Reaction Biology HotSpot kinase assay; format: biochemical; details: 500 nM compound; read-out: Percentage kinase inhibition EPHA5
Sequence (P54756 25-1037): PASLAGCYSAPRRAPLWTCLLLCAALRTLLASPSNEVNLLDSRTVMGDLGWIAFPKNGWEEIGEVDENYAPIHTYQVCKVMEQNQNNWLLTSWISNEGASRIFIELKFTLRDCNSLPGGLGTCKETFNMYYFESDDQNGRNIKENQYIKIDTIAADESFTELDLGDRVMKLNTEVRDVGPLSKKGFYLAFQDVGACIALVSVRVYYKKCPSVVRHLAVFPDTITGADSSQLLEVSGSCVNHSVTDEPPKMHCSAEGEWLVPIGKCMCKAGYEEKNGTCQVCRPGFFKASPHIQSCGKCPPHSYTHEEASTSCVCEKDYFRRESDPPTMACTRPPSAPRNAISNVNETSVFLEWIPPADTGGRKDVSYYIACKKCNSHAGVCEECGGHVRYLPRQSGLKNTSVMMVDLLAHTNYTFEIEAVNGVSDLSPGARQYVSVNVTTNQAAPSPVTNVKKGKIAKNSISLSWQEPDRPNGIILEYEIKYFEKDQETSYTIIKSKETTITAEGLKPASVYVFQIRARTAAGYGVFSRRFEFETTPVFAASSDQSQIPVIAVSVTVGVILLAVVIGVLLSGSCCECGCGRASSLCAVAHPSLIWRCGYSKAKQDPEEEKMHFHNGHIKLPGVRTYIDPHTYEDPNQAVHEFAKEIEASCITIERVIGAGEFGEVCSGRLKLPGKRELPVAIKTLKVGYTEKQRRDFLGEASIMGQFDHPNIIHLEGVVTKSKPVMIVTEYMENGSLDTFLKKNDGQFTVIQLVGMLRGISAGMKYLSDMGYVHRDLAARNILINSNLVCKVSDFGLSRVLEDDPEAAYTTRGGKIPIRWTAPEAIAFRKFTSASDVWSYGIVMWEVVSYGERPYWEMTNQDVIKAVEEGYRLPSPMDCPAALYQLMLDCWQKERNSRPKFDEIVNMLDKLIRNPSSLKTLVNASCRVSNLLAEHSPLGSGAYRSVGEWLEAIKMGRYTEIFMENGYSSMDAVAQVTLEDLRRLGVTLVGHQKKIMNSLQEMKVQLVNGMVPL
experimentalReadout: inhibition at 0.5 µM (%)

chemicalStructure	measurementUnit	resultNumber
COc1cc2nc(N)nc(C#Cc3cc(C(=O)Nc4ccc(CN5CCN(C)CC5)c(C(F)(F)F)c4)ccc3C)c2cc1OC	%	30
Cc1ccc(C(=O)Nc2ccc(CN3CCN(C)CC3)c(C(F)(F)F)c2)cc1C#Cc1cnc(N)c2ccccc12	%	97
Cc1ccc(C(=O)Nc2ccc(CN3CCN(C)CC3)c(C(F)(F)F)c2)cc1C#Cc1cc(N)nc2ccccc12	%	0
Cc1ccc(C(=O)Nc2ccc(CN3CCN(C)CC3)c(C(F)(F)F)c2)cc1C#Cc1c(N)ncc2ccc(Cl)cc12	%	96
Cc1ccc(C(=O)Nc2ccc(CN3CCN(C)CC3)c(C(F)(F)F)c2)cc1C#Cc1cnc(N)c2ncccc12	%	96

###

molecular target: UniProt P00533; assay: Reaction Biology HotSpot kinase assay; type: biochemical; details: 500 nM compound; read-out: Percentage kinase inhibition EGFR
Sequence (P00533 25-1210): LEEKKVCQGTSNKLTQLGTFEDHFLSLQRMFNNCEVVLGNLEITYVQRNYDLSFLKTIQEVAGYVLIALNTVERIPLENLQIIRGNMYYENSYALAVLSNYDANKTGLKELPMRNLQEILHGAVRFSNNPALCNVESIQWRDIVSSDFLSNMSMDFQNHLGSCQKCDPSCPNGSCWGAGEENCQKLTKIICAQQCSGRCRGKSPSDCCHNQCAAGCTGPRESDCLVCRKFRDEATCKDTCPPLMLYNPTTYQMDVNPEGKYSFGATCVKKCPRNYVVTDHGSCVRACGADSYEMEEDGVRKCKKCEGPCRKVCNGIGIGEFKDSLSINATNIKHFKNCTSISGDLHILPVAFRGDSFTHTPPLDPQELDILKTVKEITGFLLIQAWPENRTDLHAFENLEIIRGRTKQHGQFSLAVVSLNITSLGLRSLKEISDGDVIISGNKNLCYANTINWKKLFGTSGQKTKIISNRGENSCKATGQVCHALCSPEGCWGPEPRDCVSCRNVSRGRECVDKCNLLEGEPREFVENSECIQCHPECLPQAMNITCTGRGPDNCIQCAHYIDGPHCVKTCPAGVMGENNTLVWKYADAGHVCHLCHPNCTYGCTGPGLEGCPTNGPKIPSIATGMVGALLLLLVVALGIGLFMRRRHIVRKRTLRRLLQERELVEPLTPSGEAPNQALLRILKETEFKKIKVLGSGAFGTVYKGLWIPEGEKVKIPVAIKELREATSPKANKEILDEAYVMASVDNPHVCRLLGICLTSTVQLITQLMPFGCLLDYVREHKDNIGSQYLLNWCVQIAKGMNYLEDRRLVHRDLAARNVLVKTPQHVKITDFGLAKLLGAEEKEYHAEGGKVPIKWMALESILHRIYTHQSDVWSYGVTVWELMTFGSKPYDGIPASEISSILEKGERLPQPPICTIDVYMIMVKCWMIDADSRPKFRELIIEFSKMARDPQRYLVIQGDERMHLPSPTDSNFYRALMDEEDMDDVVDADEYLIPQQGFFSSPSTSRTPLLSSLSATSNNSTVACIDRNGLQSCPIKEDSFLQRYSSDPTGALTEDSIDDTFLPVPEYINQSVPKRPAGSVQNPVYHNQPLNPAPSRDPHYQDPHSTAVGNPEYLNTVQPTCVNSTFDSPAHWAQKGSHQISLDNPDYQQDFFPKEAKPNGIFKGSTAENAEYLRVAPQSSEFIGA

chemicalStructure	inhibition at 0.5 µM / %
Cc1ccc(C(=O)Nc2ccc(CN3CCN(C)CC3)c(C(F)(F)F)c2)cc1C#Cc1cnc(N)c2ncccc12	59
Cc1ccc(C(=O)Nc2ccc(CN3CCN(C)CC3)c(C(F)(F)F)c2)cc1C#Cc1cnc(N)c2ccccc12	61
Cc1ccc(C(=O)Nc2ccc(CN3CCN(C)CC3)c(C(F)(F)F)c2)cc1C#Cc1c(N)ncc2ccc(Cl)cc12	44
Cc1ccc(C(=O)Nc2ccc(CN3CCN(C)CC3)c(C(F)(F)F)c2)cc1C#Cc1cc(N)nc2ccccc12	0
COc1cc2nc(N)nc(C#Cc3cc(C(=O)Nc4ccc(CN5CCN(C)CC5)c(C(F)(F)F)c4)ccc3C)c2cc1OC	0

###

tested on: K562; assay: IC50 proliferation assay (Alamar Blue, 72 h); type: cell-based; conditions: Table 18; read-out: Inhibition of proliferation of K562 cell lines (CML)
experimentalReadout: log10(IC50) (log10 of the value in nM)

molecule	log10(IC50)
Cc1ccc(C(=O)NCCCN2CCCCC2)cc1C#Cc1c(N)ncc2ccc(Cl)cc12 [HSL56]	1.98
Cc1ccc(C(=O)NCc2ccc(OCCN(C)C)cc2)cc1C#Cc1c(N)ncc2ccc(Cl)cc12 [HSN315]	2.31
Cc1ccc(C(=O)NCCN2CCCCC2)cc1C#Cc1cnc(N)c2ccccc12 [HSL58]	1.98
Cc1ccc(C(=O)NCCN2CCCC2)cc1C#Cc1c(N)ncc2ccc(Cl)cc12 [HSL41]	1.48
Cc1ccc(C(=O)NCCN2CCN(C)CC2)cc1C#Cc1c(N)ncc2ccc(Cl)cc12 [HSL47]	2.21
CN(C)CC(O)CNC(=O)c1ccc(C#Cc2c(N)ncc3ccc(Cl)cc23)cc1 (stereo not shown) [HSM1702]	3.70
Cc1ccc(C(=O)NCCN2CCCCC2)cc1C#Cc1cnc(N)c2ncccc12 [HSL45]	1.40
Cc1ccc(C(=O)NCCN2CCCCC2)cc1C#Cc1cnc2cccnn12 [HSL44]	1.64
Cc1ccc(C(=O)NCCN2CCOCC2)cc1C#Cc1c(N)ncc2ccc(Cl)cc12 [HSL43]	1.00
Cc1ccc(C(=O)NCC(O)CN(C)C)cc1C#Cc1c(N)ncc2ccc(Cl)cc12 (stereo not shown) [HSN178]	3.16
